Please respond with reported pIC50 for every item in the list.
target: Human immunodeficiency virus type 1 integrase (Human immunodeficiency virus 1); experiment: Inhibition of recombinant HIV1 integrase using unprocessed donor DNA by coupled assay
pIC50: −log10 of the molar value.

Consider the worked cases shown below.
C=C(CC[C@@H](C)[C@H]1CC=C2C3=C([C@@H](O)[C@H](OC(C)=O)[C@@]21C)[C@@]1(C)CC[C@H](OS(=O)(=O)O)C(C)(C)[C@@H]1CC3)C(C)C: 5.51
C=C(CC[C@@H](C)[C@H]1CC=C2C3=C([C@@H](O)[C@H](O)[C@@]21C)[C@@]1(C)C[C@@H](O)[C@H](O)C(C)(C)[C@@H]1CC3)C(C)C: 4.32
C=C(CC[C@@H](C)[C@H]1CC(=O)C2=C3CC[C@H]4C(C)(C)[C@@H](O)[C@H](O)C[C@]4(C)C3=C[C@H](OC(C)=O)[C@@]21C)C(C)C: 4.60
C=C(CC[C@@H](C)[C@H]1CC=C2C3=C([C@@H](O)[C@H](OC(C)=O)[C@@]21C)[C@@]1(C)C[C@@H](OCOC)[C@H](O)C(C)(C)[C@@H]1CC3)C(C)C: < 4.10
C=C(CC[C@@H](C)[C@H]1CC=C2C3=C([C@@H](O)[C@H](OC(C)=O)[C@@]21C)[C@@]1(C)C[C@@H](OC(=O)CNC(=O)OCC2c4ccccc4-c4ccccc42)[C@H](OC(=O)CNC(=O)OCC2c4ccccc4-c4ccccc42)C(C)(C)[C@@H]1CC3)C(C)C: < 4.30

Hi! Can you tell me pIC50 for each of these compounds?
1. C=C(CC[C@@H](C)[C@H]1CC=C2C3=C([C@@H](O)[C@H](OC(C)=O)[C@@]21C)[C@@]1(C)C[C@@H](O)[C@H](OC(=O)c2ccccc2)C(C)(C)[C@@H]1CC3)C(C)C
2. C=C(CC[C@@H](C)[C@H]1CC=C2C3=C([C@@H](O)[C@H](OC(C)=O)[C@@]21C)[C@@]1(C)C[C@@H](OCOC)[C@H](OCOC)C(C)(C)[C@@H]1CC3)C(C)C
3. C=C(CC[C@@H](C)[C@H]1CC=C2C3=C([C@@H](O)[C@H](OC(C)=O)[C@@]21C)[C@@]1(C)C[C@@H](OC(=O)CCC(=O)OC)[C@H](O)C(C)(C)[C@@H]1CC3)C(C)C
4. C=C(CC[C@@H](C)[C@H]1CC=C2C3=C([C@@H](O)[C@H](OC(C)=O)[C@@]21C)[C@@]1(C)C[C@@H](OC(=O)CNC(=O)OCC2c4ccccc4-c4ccccc42)[C@H](O)C(C)(C)[C@@H]1CC3)C(C)C

Result:
1. < 4.10
2. < 4.10
3. < 4.30
4. < 4.30

====

molecular target: Human immunodeficiency virus type 1 integrase (Human immunodeficiency virus 1, UniProt Q7ZJM1); test: Inhibition of recombinant HIV1 integrase using preprocessed donor DNA treated after washing excess enzyme by strand transfer assay
Sequence (Q7ZJM1 whole entry): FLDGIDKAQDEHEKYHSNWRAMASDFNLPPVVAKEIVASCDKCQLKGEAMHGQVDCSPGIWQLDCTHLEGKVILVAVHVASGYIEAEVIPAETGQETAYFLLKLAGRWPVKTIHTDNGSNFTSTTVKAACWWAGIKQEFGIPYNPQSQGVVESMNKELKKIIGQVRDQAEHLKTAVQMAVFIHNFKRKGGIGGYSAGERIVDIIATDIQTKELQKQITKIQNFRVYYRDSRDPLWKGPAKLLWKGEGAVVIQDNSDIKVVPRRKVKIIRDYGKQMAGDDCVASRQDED
pIC50: −log10 of the molar value.
Please respond with reported pIC50 for every item in the list.

Consider the worked cases shown below.
COC(=O)C[C@@](C)(O)CC(=O)O[C@@H]1C[C@]2(C)C3=C(CC[C@H]2C(C)(C)C1=O)[C@]1(C)CC[C@H]([C@H](C)CCC(O)C(C)(C)O)[C@@]1(C)CC3 (stereo partly drawn): < 4.00
C=C(CC[C@@H](C)[C@H]1CC=C2C3=C([C@@H](OC(C)=O)[C@H](OC(C)=O)[C@@]21C)[C@@]1(C)C[C@@H](OC(C)=O)[C@H](OC(C)=O)C(C)(C)[C@@H]1CC3)C(C)C: < 4.30

Task: Can you look up the measured pIC50 of C=C(CC[C@@H](C)[C@H]1C[C@@H](OC)c2c3c(cc(C)c21)[C@@]1(C)C[C@@H](O)[C@H](O)C(C)(C)[C@@H]1CC3)C(C)C for me?
Result: < 4.00
